Readings of kinase still bound, per cent of control for the listed compounds
molecular target: INSRR (human) (UniProt P14616); test: KINOMEscan competition binding; details: compound 10.0 µM
Sequence (P14616 whole entry, looked up): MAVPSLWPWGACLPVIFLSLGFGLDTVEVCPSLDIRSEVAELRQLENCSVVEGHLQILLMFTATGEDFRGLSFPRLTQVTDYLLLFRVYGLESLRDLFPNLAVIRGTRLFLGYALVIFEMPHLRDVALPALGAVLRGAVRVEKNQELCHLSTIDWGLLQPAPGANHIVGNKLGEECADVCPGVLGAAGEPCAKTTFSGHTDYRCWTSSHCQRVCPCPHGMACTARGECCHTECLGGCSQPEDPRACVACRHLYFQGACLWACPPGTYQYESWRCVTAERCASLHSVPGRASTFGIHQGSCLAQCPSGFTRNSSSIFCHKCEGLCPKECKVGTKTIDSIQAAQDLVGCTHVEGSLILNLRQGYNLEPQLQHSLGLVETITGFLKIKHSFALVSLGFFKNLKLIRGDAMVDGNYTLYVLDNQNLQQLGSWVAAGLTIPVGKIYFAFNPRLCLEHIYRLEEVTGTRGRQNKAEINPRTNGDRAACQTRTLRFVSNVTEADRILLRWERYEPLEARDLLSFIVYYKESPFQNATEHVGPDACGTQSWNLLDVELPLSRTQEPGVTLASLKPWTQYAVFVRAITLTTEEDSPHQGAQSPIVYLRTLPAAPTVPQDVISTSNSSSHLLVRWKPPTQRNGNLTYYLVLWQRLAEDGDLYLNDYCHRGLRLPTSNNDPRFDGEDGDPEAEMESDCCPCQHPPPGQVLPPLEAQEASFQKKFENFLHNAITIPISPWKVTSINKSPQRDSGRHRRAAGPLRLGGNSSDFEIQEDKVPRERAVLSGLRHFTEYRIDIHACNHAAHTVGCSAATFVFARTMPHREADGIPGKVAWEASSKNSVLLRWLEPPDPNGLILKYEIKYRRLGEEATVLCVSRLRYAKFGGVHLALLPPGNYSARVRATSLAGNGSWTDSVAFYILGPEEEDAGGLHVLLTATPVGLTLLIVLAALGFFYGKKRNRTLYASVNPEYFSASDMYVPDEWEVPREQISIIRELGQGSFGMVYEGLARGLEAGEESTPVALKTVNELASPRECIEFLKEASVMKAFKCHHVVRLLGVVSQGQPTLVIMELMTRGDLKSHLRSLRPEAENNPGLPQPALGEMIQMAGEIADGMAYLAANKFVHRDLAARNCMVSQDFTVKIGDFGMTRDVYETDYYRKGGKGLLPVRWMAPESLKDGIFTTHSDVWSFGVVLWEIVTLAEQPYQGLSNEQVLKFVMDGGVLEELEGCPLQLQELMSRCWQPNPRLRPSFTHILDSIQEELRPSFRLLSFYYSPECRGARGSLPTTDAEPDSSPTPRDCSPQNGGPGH

# chem_smiles, kinase still bound, per cent of control [%]
data = [
    ("COc1cc2ncnc(-n3nc(-c4ccccn4)nc3N)c2cc1OC", 100),
    ("COc1cc2ncn(-c3cc(OCc4ccccc4C(F)(F)F)c(C(N)=O)s3)c2cc1OC", 100),
    ("O=c1cc(N2CCOCC2)oc2c(-c3cccc4c3sc3ccccc34)cccc12", 100),
    ("CNC(=O)c1cc(Oc2ccc(NC(=O)Nc3ccc(Cl)c(C(F)(F)F)c3)cc2)ccn1", 97),
]

---

target: ABL1 (human) (UniProt P00519); assay: KINOMEscan competition binding; conditions: compound 10.0 µM
Sequence (P00519 whole entry, looked up): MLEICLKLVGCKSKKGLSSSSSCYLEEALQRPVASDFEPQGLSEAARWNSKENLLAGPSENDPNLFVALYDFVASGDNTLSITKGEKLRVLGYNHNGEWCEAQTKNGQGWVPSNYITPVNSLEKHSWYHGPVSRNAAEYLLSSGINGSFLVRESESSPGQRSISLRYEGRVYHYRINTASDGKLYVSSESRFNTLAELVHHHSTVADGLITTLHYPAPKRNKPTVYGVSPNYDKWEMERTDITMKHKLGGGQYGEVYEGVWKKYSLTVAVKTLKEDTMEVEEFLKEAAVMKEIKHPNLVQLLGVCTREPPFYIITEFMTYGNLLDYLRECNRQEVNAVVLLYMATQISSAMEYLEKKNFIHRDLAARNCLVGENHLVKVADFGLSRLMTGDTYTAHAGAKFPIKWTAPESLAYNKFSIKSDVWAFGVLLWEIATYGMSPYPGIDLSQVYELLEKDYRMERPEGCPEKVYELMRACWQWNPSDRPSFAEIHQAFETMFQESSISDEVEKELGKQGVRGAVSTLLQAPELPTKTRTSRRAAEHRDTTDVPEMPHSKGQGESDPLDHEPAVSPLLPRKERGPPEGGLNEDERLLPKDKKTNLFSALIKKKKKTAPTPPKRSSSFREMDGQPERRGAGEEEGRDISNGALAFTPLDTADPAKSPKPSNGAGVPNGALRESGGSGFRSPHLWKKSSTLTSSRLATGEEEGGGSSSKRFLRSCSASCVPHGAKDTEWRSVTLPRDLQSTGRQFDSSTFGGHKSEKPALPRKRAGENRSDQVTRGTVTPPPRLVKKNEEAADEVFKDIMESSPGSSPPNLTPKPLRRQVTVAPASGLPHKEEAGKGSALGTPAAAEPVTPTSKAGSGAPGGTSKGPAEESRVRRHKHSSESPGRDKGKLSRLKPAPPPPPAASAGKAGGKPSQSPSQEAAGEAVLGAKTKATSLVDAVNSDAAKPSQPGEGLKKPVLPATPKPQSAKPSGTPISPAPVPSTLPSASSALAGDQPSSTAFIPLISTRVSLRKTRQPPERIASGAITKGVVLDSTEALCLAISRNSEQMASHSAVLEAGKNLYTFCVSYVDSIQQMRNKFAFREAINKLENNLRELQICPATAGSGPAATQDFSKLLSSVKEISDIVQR
Readings of kinase still bound, per cent of control for the listed compounds
value_kind: kinase still bound, per cent of control

# chem_smiles, result
measured = [
    ("CNC(=O)c1ccc(Nc2cc(Nc3ccccc3S(=O)(=O)C(C)C)c3cc[nH]c3n2)nc1", "11%"),
    ("COc1cc2ncn(-c3cc(OCc4ccccc4C(F)(F)F)c(C(N)=O)s3)c2cc1OC", "60%"),
    ("C=CC(=O)Nc1ccc(CN(C(=O)Nc2c(Cl)c(OC)cc(OC)c2Cl)c2cc(Nc3ccc(N4CCN(C)CC4)cc3)ncn2)cc1", "16%"),
    ("CCN(CC)CCCCNc1ncc2c(n1)N(C)C(=O)N(c1c(Cl)c(OC)cc(OC)c1Cl)C2", "100%"),
    ("CS(=O)(=O)N1CCN(Cc2cc3nc(-c4cccc5[nH]ncc45)nc(N4CCOCC4)c3s2)CC1", "100%"),
    ("N#CCNC(=O)c1ccc(-c2ccnc(Nc3ccc(N4CCOCC4)cc3)n2)cc1", "54%"),
    ("Cc1n[nH]c2ccc(-c3cncc(OC[C@@H](N)Cc4c[nH]c5ccccc45)c3)cc12", "100%"),
    ("CCN(CC)CCCCNc1ncc2cc(-c3cc(OC)cc(OC)c3)c(NC(=O)NC(C)(C)C)nc2n1", "100%"),
    ("COc1cc(N2CCN(C)CC2)ccc1Nc1ncc2c(n1)N(C)c1ccccc1C(=O)N2C", "100%"),
]

---

target: TIE1 (human); assay: KINOMEscan competition binding; conditions: compound 10.0 µM
Note to self: kinase still bound, per cent of control under 30% means t, ties and anything higher get f.

# chem_smiles, label_value
rows = [
    ("COCC(=O)NC/C=C/c1ccc2ncnc(Nc3ccc(Oc4ccc(C)nc4)c(C)c3)c2c1", "f"),
    ("COc1cc2ncn(-c3cc(OCc4ccccc4C(F)(F)F)c(C(N)=O)s3)c2cc1OC", "f"),
    ("C=CC(=O)Nc1cc(-n2c(=O)ccc3cnc4ccc(-c5cn[nH]c5)cc4c32)ccc1C", "f"),
    ("COc1ccc(N(C(=O)Oc2c(C)cccc2C)c2ccnc(Nc3ccc(N4CCN(C)CC4)cc3)n2)c(OC)c1", "t"),
    ("CCN(CC)CCCCNc1ncc2c(n1)N(C)C(=O)N(c1c(Cl)c(OC)cc(OC)c1Cl)C2", "t"),
    ("Cc1n[nH]c2ccc(-c3cncc(OC[C@@H](N)Cc4c[nH]c5ccccc45)c3)cc12", "f"),
    ("CN(C)C/C=C/C(=O)Nc1ccc(C(=O)Nc2cccc(Nc3nccc(-c4cccnc4)n3)c2)cc1", "f"),
    ("C=CC(=O)Nc1ccc(CN(C(=O)Nc2c(Cl)c(OC)cc(OC)c2Cl)c2cc(Nc3ccc(N4CCN(C)CC4)cc3)ncn2)cc1", "t"),
    ("O=C(Nc1cccc(Nc2ncc(Br)c(NCCc3cnc[nH]3)n2)c1)N1CCCC1", "t"),
    ("COc1cc(C(=O)N2CCC(N3CCN(C)CC3)CC2)ccc1Nc1ncc2c(n1)N(C)c1ccccc1C(=O)N2C", "f"),
    ("CCN1CCN(C(=O)Cc2ccc(Nc3ncc(F)c(Nc4ccc(C(=O)Nc5ccccc5Cl)cc4)n3)cc2)CC1", "t"),
    ("COc1cc(N2CCN(C)CC2)ccc1Nc1ncc2c(n1)N(C)c1ccccc1C(=O)N2C", "f"),
    ("O=c1cc(N2CCOCC2)oc2c(-c3cccc4c3sc3ccccc34)cccc12", "f"),
    ("CNC(=O)c1ccc(Nc2cc(Nc3ccccc3S(=O)(=O)C(C)C)c3cc[nH]c3n2)nc1", "t"),
    ("O=C1NC(=O)/C(=C/c2ccc3nccc(-c4ccncc4)c3c2)S1", "f"),
    ("CCN(CC)CCCCNc1ncc2cc(-c3cc(OC)cc(OC)c3)c(NC(=O)NC(C)(C)C)nc2n1", "t"),
    ("N#CCNC(=O)c1ccc(-c2ccnc(Nc3ccc(N4CCOCC4)cc3)n2)cc1", "f"),
    ("NC(=O)Nc1cc(-c2cccc(F)c2)sc1C(=O)N[C@@H]1CCCNC1", "t"),
    ("COc1cc2ncnc(-n3nc(-c4ccccn4)nc3N)c2cc1OC", "f"),
]

---

molecular target: PAK4 (human) (UniProt O96013); assay: KINOMEscan competition binding; conditions: compound 10.0 µM
Sequence (O96013 whole entry, looked up): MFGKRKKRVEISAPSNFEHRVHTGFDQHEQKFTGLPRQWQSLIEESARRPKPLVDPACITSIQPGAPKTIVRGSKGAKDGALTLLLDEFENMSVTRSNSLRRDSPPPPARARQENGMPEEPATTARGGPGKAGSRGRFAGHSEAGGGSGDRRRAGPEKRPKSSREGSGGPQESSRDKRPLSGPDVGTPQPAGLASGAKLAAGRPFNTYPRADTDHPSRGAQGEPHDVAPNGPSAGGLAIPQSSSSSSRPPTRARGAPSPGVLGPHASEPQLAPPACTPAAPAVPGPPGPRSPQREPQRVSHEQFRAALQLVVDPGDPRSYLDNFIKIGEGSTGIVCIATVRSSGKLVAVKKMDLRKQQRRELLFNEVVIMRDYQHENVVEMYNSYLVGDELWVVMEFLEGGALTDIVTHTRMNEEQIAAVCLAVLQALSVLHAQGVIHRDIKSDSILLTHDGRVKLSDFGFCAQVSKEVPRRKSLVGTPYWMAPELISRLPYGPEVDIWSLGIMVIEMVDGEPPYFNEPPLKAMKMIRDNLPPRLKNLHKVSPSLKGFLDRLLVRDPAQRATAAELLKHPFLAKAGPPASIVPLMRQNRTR
Readings of kinase still bound, per cent of control for the listed compounds
value_kind: kinase still bound, per cent of control

# chem_smiles, measured_target, result
measured = [
    ("NC(=O)Nc1cc(-c2cccc(F)c2)sc1C(=O)N[C@@H]1CCCNC1", "PAK4 (human) (UniProt O96013)", "1.2%"),
    ("N#CCNC(=O)c1ccc(-c2ccnc(Nc3ccc(N4CCOCC4)cc3)n2)cc1", "PAK4 (human) (UniProt O96013)", "100%"),
    ("COc1cc(N2CCN(C)CC2)ccc1Nc1ncc2c(n1)N(C)c1ccccc1C(=O)N2C", "PAK4 (human) (UniProt O96013)", "100%"),
    ("C[C@@H](Oc1cc(-c2cnn(C3CCNCC3)c2)cnc1N)c1c(Cl)ccc(F)c1Cl", "PAK4 (human) (UniProt O96013)", "80%"),
    ("CNC(=O)c1cc(Oc2ccc(NC(=O)Nc3ccc(Cl)c(C(F)(F)F)c3)cc2)ccn1", "PAK4 (human) (UniProt O96013)", "91%"),
    ("O=C(Nc1cccc(Nc2ncc(Br)c(NCCc3cnc[nH]3)n2)c1)N1CCCC1", "PAK4 (human) (UniProt O96013)", "4%"),
    ("CN(C)C/C=C/C(=O)Nc1ccc(C(=O)Nc2cccc(Nc3nccc(-c4cccnc4)n3)c2)cc1", "PAK4 (human) (UniProt O96013)", "83%"),
    ("O=c1cc(N2CCOCC2)oc2c(-c3cccc4c3sc3ccccc34)cccc12", "PAK4 (human) (UniProt O96013)", "80%"),
    ("O=C1NC(=O)/C(=C/c2ccc3nccc(-c4ccncc4)c3c2)S1", "PAK4 (human) (UniProt O96013)", "75%"),
    ("COc1cc2ncnc(-n3nc(-c4ccccn4)nc3N)c2cc1OC", "PAK4 (human) (UniProt O96013)", "72%"),
    ("Cc1n[nH]c2ccc(-c3cncc(OC[C@@H](N)Cc4c[nH]c5ccccc45)c3)cc12", "PAK4 (human) (UniProt O96013)", "13%"),
    ("CCN1CCN(C(=O)Cc2ccc(Nc3ncc(F)c(Nc4ccc(C(=O)Nc5ccccc5Cl)cc4)n3)cc2)CC1", "PAK4 (human) (UniProt O96013)", "47%"),
    ("COc1cc(C(=O)N2CCC(N3CCN(C)CC3)CC2)ccc1Nc1ncc2c(n1)N(C)c1ccccc1C(=O)N2C", "PAK4 (human) (UniProt O96013)", "94%"),
    ("COCC(=O)NC/C=C/c1ccc2ncnc(Nc3ccc(Oc4ccc(C)nc4)c(C)c3)c2c1", "PAK4 (human) (UniProt O96013)", "87%"),
    ("CCN(CC)CCCCNc1ncc2cc(-c3cc(OC)cc(OC)c3)c(NC(=O)NC(C)(C)C)nc2n1", "PAK4 (human) (UniProt O96013)", "100%"),
    ("C=CC(=O)Nc1cc(-n2c(=O)ccc3cnc4ccc(-c5cn[nH]c5)cc4c32)ccc1C", "PAK4 (human) (UniProt O96013)", "100%"),
    ("COc1ccc(N(C(=O)Oc2c(C)cccc2C)c2ccnc(Nc3ccc(N4CCN(C)CC4)cc3)n2)c(OC)c1", "PAK4 (human) (UniProt O96013)", "97%"),
    ("CCN(CC)CCCCNc1ncc2c(n1)N(C)C(=O)N(c1c(Cl)c(OC)cc(OC)c1Cl)C2", "PAK4 (human) (UniProt O96013)", "100%"),
    ("COc1cc2ncn(-c3cc(OCc4ccccc4C(F)(F)F)c(C(N)=O)s3)c2cc1OC", "PAK4 (human) (UniProt O96013)", "100%"),
    ("CNC(=O)c1ccc(Nc2cc(Nc3ccccc3S(=O)(=O)C(C)C)c3cc[nH]c3n2)nc1", "PAK4 (human) (UniProt O96013)", "18%"),
    ("CS(=O)(=O)N1CCN(Cc2cc3nc(-c4cccc5[nH]ncc45)nc(N4CCOCC4)c3s2)CC1", "PAK4 (human) (UniProt O96013)", "100%"),
    ("C=CC(=O)Nc1ccc(CN(C(=O)Nc2c(Cl)c(OC)cc(OC)c2Cl)c2cc(Nc3ccc(N4CCN(C)CC4)cc3)ncn2)cc1", "PAK4 (human) (UniProt O96013)", "100%"),
]
